# SYSTEM TESTED: human FXa (Homo sapiens)
# Sequence (P00742 235-488 limits assumed): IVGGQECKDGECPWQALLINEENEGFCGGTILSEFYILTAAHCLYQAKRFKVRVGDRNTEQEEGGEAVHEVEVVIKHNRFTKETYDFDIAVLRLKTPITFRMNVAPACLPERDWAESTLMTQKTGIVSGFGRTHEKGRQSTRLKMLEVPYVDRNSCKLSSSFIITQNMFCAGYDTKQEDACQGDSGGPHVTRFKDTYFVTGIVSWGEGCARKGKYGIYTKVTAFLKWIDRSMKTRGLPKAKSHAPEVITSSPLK
# Sequence (P00742 41-179 partner limits assumed): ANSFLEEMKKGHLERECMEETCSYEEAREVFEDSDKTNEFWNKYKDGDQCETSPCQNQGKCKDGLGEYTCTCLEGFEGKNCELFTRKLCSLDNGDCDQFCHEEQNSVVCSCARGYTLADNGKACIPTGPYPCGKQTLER
# ASSAY PROTOCOL: Inhibitory action of human activated blood coagulation factor X (FXa)
# STUDY CONDITIONS: concentration inhibiting FXa activity by 50%; substrate S-2765, 37° C., absorbance at 405 nm
Counter-ions that a name gives are not always drawn.
Please assign a class to every record based on measured IC50, with ranges low band (below 9 nM), middle band (9 nM to below 50 nM), high band (50 nM or more)

Study these solved cases before continuing.
INSERT INTO results (molecule, classification) VALUES
  ('O=C(CCS(=O)(=O)c1ccc2cc(Cl)ccc2c1)N1CCC(/N=c2\sccn2CCO)CC1', 'middle band'),
  ('COC(=O)C1CN(CC2=CSC3=NCCN23)CCN1C(=O)CCS(=O)(=O)c1ccc2cc(Cl)ccc2c1 (stereo not drawn)', 'middle band'),
  ('C/N=c1\sc(C2CCN(C(=O)CCS(=O)(=O)c3ccc4cc(Cl)ccc4c3)CC2)c(C(=O)OC)n1C', 'middle band'),
  ('C/N=c1\sc(C2CCN(C(=O)CCS(=O)(=O)c3ccc4cc(Cl)ccc4c3)CC2)c(C(=O)O)n1C', 'low band'),
  ('Cn1cc(C2CCN(C(=O)CCS(=O)(=O)c3ccc4cc(Cl)ccc4c3)CC2)sc1=N', 'high band'),
  ('C/N=c1\scc(CN2CCN(C(=O)CCS(=O)(=O)c3ccc4cc(Cl)ccc4c3)CC2)n1C [Example 5, dihydrochloride]', 'high band');

Inquiry: Any idea which band Cn1c(CN2CCN(C(=O)CCS(=O)(=O)c3ccc4cc(Cl)ccc4c3)CC2)csc1=N [Example 12, dihydrochloride] is in?
Reply text: middle band

Inquiry: Any idea which band `C/N=c1\sccn1CCC1CCN(C(=O)CCS(=O)(=O)c2ccc3cc(Cl)ccc3c2)CC1` is in?
Reply text: low band

Inquiry: Any idea which band `C/N=c1\sc(C2CCN(C(=O)CCS(=O)(=O)c3ccc4cc(Cl)ccc4c3)CC2)c(CO)n1C` is in?
Reply text: middle band
